Hello, the source for this data is patent US20250215016A1, in case you need it.

Target: human α2β3γ2 receptor (α2-GABAA receptor) (Homo sapiens (Human), UniProt P18507+P47869)
Experiment: Radioligand (3H-flunitrazepam) competition binding assay, BZD site; α2 vs α5 binding selectivity
Settings: ratio of Ki at α2β3γ2 to Ki at α5β3γ2
quantity.name: Selectivity α2 ki/α5 ki
Please report the result as a number followed by the unit.

Cc1onc(-c2ccc(F)cc2)c1COc1ccc(-c2nnc3n2CCOC3)nn1 [Compound 18]; 41.4 folds
Cc1onc(-c2ccc(F)cc2)c1COc1ccc(N2CCn3ccnc3C2)nn1 [Compound 35]; 35.8 folds
Cc1onc(-c2ccc(F)cc2)c1COc1ccc(N2CCn3c(C)nnc3C2=O)nn1 [Compound 36]; 46.9 folds
Cc1onc(-c2ccc(F)cc2)c1COc1cnc(-c2nnc3n2CCOC3)cn1 [Compound 19]; 93.8 folds
Cc1onc(-c2ccc(F)cc2)c1COc1ccc(-c2nnc3n2CCS(=O)(=O)C3)cn1 [Compound 7]; 11.01 folds
Cc1onc(-c2ccc(F)cc2)c1COc1ccc(-c2cc3n(c(=O)n2)C[C@]24CO[C@H](CN32)C4)cn1 [Compound 38]; 122.2 folds

Please look at the items below and tell me Selectivity α2 ki/α5 ki for each one, in order.
1. Cc1ncc(-c2ccc(OCc3c(C)nnn3-c3ccc(C(F)F)cc3)nn2)o1 [WO2020016443A1, Example 6, reference compound]
2. Cc1onc(-c2ccc(F)cc2)c1COc1ccc(-c2nnc3n2CCOC3)cn1 [Compound 17]
3. Cc1onc(-c2ccc(F)cc2)c1COc1ccc(N2CCN3CCNC(=O)C3C2)nn1 (stereo not drawn) [Compound 10]
4. Cc1onc(-c2ccc(F)cc2)c1COc1ccc(N2CCn3ccnc3C2=O)nn1 [Compound 37]
5. Cc1nnn(-c2ccc(C(F)F)cc2)c1COc1ccc(-n2cnc(C(F)F)c2)nn1 [WO2020016443A1, Example 15, reference compound]

["13.2 folds", "23.1 folds", "63.3 folds", "48.6 folds", "7.67 folds"]

Please give Selectivity α2 ki/α5 ki, item by item, for the list that follows.
1. Cc1onc(-c2ccc(F)cc2)c1COc1ccc(-c2cc3n(c(=O)n2)CCN3C)cn1 [Compound 41]
2. Cc1onc(-c2ccc(F)cc2)c1COc1cnc(-c2nnc3n2CCC3)cn1 [Compound 23]

75.8 folds
90.2 folds

* * *

For each record, write down the corresponding pKi.
Molecular target: human α5β3γ2 receptor (α5-GABAA receptor) (Homo sapiens (Human), UniProt P18507+P31644)
Test: Radioligand (3H-flunitrazepam) competition binding assay, BZD site
Conditions: 3H-flunitrazepam 1 nM; HEK293 membranes expressing human α5β3γ2
One number for each entry, as −log10 of the molar value.

Cc1onc(-c2ccc(F)cc2)c1COc1cnc(N2CCn3c(C)nnc3C2)cn1 [Compound 27]; 8.41
Cc1onc(-c2ccc(F)cc2)c1COc1ccc(-n2nnc3c2CCOC3)cn1 [Compound 50]; 8.06
Cc1onc(-c2ccc(F)cc2)c1COc1cnc(-c2nnc3n2CCCC3)cn1 [Compound 32]; 8.31
Cc1onc(-c2ccc(F)cc2)c1COc1ccc(-c2nnc3n2CCC3)nn1 [Compound 22]; 9.27
Cc1onc(-c2ccc(F)cc2)c1COc1cnc(-c2nnc3n2CCN(C)C3)cn1 [Compound 16]; 8.16
Cc1onc(-c2ccc(F)cc2)c1COc1cnc(-c2nnn3c2COCC3)cn1 [Compound 12]; 8.59
Cc1onc(-c2ccc(F)cc2)c1COc1ccc(-c2nnc3n2CCN(C)C3=O)cn1 [Compound 2]; 8.11

Kindly consider the entry below.
Look up and report pKi, with human α5β3γ2 receptor (α5-GABAA receptor) (Homo sapiens (Human), UniProt P18507+P31644) as system, for Cc1onc(-c2ccc(F)cc2)c1COc1ccc(-c2nnn3c2COCC3)cn1 [Compound 1]
8.92

* * *

Target: α5-GABAA receptor (Homo sapiens (Human), UniProt P18507+P31644)
Experiment: Whole-cell patch clamp electrophysiology, inverse regulation activity in α5β3γ2-HEK293 cells
Type: cell-based
Conditions: compound 100 nM; GABA 0.05-0.06 μM (about EC7-8); clamped at −60 mV; read-out: Inverse regulation efficiency to α5-GABAA receptor
# inhibition at 0.1 µM >= 40% gives Y, anything below gives N

Cc1onc(-c2ccc(F)cc2)c1COc1ccc(-c2nnc3n2CCN(C)C3=O)nn1; Y

State whether the measured inhibition at 0.1 µM reaches 40%, counting equality as reaching it, for `Cc1onc(-c2ccc(F)cc2)c1COc1cnc(-c2cc3n(c(=O)n2)CCN3C)cn1`
N

Decide: inhibition at 0.1 µM of `Cc1onc(-c2ccc(F)cc2)c1COc1ccc(-c2nnc3n2CCN(C)C3=O)cn1` >= 40%?
N

State whether the measured inhibition at 0.1 µM reaches 40%, counting equality as reaching it, for `Cc1onc(-c2ccc(F)cc2)c1COc1cnc(-c2nnc3n2CCCOC3)cn1`
Y

Determine whether measured inhibition at 0.1 µM meets or exceeds 40% for `Cc1onc(-c2ccc(F)cc2)c1COc1cnc(-c2nnc3n2CCOC3)cn1`
Y

Decide: inhibition at 0.1 µM of Cc1onc(-c2ccc(F)cc2)c1COc1ccc(N2CCN3CCNC(=O)C3C2)nn1 (centres unmarked) >= 40%?
Y

Does the compound `CCN1CCn2c(nnc2-c2ccc(OCc3c(-c4ccc(F)cc4)noc3C)nc2)C1=O` have recorded inhibition at 0.1 µM that is 40% or more?
Y

Entry `Cc1onc(-c2ccc(F)cc2)c1COc1ccc(N2CCn3c(C)nnc3C2=O)nn1` : is its inhibition at 0.1 µM no less than 40%?
Y

Check this compound for inhibition at 0.1 µM at or above 40%: `Cc1onc(-c2ccc(F)cc2)c1COc1cnc(N2CCn3ccnc3C2)cn1`
N

Check the entry `Cc1cn2c(n1)CN(c1cnc(OCc3c(-c4ccc(F)cc4)noc3C)cn1)CC2` : does inhibition at 0.1 µM equal or exceed 40%?
N

* * *

For each record, write down the corresponding pKi.
Target: human α5β3γ2 receptor (α5-GABAA receptor) (Homo sapiens (Human), UniProt P18507+P31644)
Test: Radioligand (3H-flunitrazepam) competition binding assay, BZD site
Conditions: 3H-flunitrazepam 1 nM; HEK293 membranes expressing human α5β3γ2
Numbers only, as −log10 of the molar value.

Cc1onc(-c2ccc(F)cc2)c1COc1ccc(-c2nnn3c2COCC3)nn1; 9.22

Consider the following items and state reported pKi for each.
1. Cc1onc(-c2ccc(F)cc2)c1COc1ccc(N2CCn3c(C)nnc3C2)nn1
2. Cc1onc(-c2ccc(F)cc2)c1COc1ccc(-c2cc3n(c(=O)n2)CC24CC(CN32)C4)cn1
3. Cc1onc(-c2ccc(F)cc2)c1COc1ccc(-c2ncc3n2CCOC3)cn1
4. Cc1onc(-c2ccc(F)cc2)c1COc1ccc(-c2nnc3n2CCS(=O)(=O)C3)cn1

[8.61, 8.20, 7.48, 8.67]

* * *

Target: α5-GABAA receptor (Homo sapiens (Human), UniProt P18507+P31644)
Assay: Whole-cell patch clamp electrophysiology, inverse regulation activity in α5β3γ2-HEK293 cells
Format: cell-based
Conditions: compound 100 nM; GABA 0.05-0.06 μM (about EC7-8); clamped at −60 mV; read-out: Inverse regulation efficiency to α5-GABAA receptor
quantity.name: inhibition at 0.1 µM (%)
One number for each entry, in %.

Cc1onc(-c2ccc(F)cc2)c1COc1ccc(N2CCn3ccnc3C2)nn1; 49
Cc1onc(-c2ccc(F)cc2)c1COc1ccc(-c2cc3n(c(=O)n2)CCN3C)cn1; 47
Cc1onc(-c2ccc(F)cc2)c1COc1ccc(-c2nnc3n2CCOC3)cn1; 49

List inhibition at 0.1 µM for every entry below, keeping the order given.
1. Cc1onc(-c2ccc(F)cc2)c1COc1ccc(-c2nnc3n2CCOC3)nn1
2. Cc1onc(-c2ccc(F)cc2)c1COc1ccc(-c2nnc3n2CCS(=O)(=O)C3)nn1

[57, 45]

Give inhibition at 0.1 µM for the following molecule: `Cc1onc(-c2ccc(F)cc2)c1COc1ccc(-c2cc3n(c(=O)n2)CC24CC(CN32)C4)cn1`
44

* * *

Assign solubility thermodynamic at 4 h to each entry below.
Experiment: Thermodynamic solubility in simulated intestinal fluid (FaSSIF)
Type: physicochemical
Details: simulated intestinal fluid (FaSSIF), thermodynamic from solid, 37° C., 1000 rpm
Answers are plain numbers, in µg/mL.

CC(=O)N1CCn2c(nnc2-c2ccc(OCc3c(-c4ccc(F)cc4)noc3C)nc2)C1 [Compound 30]; 191
Cc1onc(-c2ccc(F)cc2)c1COc1ccc(N2CCn3ccnc3C2=O)nn1 [Compound 37]; 60.2
Cc1onc(-c2ccc(F)cc2)c1COc1cnc(-c2nnc3n2CCOC3)cn1 [Compound 19]; 15.2
Cc1onc(-c2ccc(F)cc2)c1COc1ccc(N2CCN3CCNC(=O)C3C2)nn1 (stereo not shown) [Compound 10]; 19.4
Cc1onc(-c2ccc(F)cc2)c1COc1ccc(-c2nnc3n2CCOC3)cn1 [Compound 17]; 33.1

# batch size: 3; output solubility thermodynamic at 4 h per entry
1. Cc1noc(-c2ccc(OCc3c(-c4ccccc4)noc3C)nc2)n1 [WO2009071476, Example 245, reference compound]
2. Cc1onc(-c2ccc(F)cc2)c1COc1ccc(-c2nnc3n2CCN(S(C)(=O)=O)C3)cn1 [Compound 31]
3. Cc1onc(-c2ccc(F)cc2)c1COc1ccc(-c2nnc3n2CCS(=O)(=O)C3)cn1 [Compound 7]

0.9
32.9
157

For the 2 compounds below, give their solubility thermodynamic at 4 h values.
1. Cc1onc(-c2ccc(F)cc2)c1COc1cnc(-c2nnc3n2CCOCC3)cn1 [Compound 33]
2. Cc1onc(-c2ccc(F)cc2)c1COc1cnc(-c2nnc3n2CCC3)cn1 [Compound 23]

1: 39.5; 2: 39.6
